System: SK-MEL-28 melanoma
Assay: NCI-60 one-dose screen, 48 h (100 = growth as untreated, 0 = no growth, -100 = all killed)
Details: 10 µM unless noted
About 83,000 compounds went through this panel and 20% of them were active in at least one assay; those are over-represented in the sample as a whole.
Simple rule here: growth less than 50% is Condition met, otherwise Condition not met.

State whether 50% exceeds growth recorded for `Cc1oc2c(C(=O)N/N=C\c3ccc(O)cc3O)c[nH]c2c1C` . Condition met

State whether 50% exceeds growth recorded for `CN1CCN(CC(=O)Nc2ccc(-c3nc4ccccc4s3)cc2)CC1` . Condition met

State whether 50% exceeds growth recorded for `C=CC[n+]1c(/C=C2\Sc3ccccc3N2C)sc(-c2ccccc2)c1-c1ccccc1` . Condition met

State whether 50% exceeds growth recorded for `Cc1ccc(N)cc1CN1C(=O)c2ccccc2C1=O` . Condition not met

State whether 50% exceeds growth recorded for `CC(C)c1ccc(/C=N/Nc2nc3ccccc3s2)cc1` . Condition not met

----------
Tested on: SF-539 CNS
Assay: NCI-60 one-dose screen, 48 h
Details: 10 µM unless noted
The panel holds about 83,000 compounds, 20% with a hit somewhere; the sample as a whole holds those more often. Activity calls are given as the source filed them. The calls were made as follows: active = growth percent below 10; inactive = the rest.
Bench note: report the call from True for active, False for inactive

CC1(C=O)NC(=O)NC1=O (stereo unspecified) | False

Just curious, what result did `C[C@@H](Oc1cc(-n2cnc3ccc(CN4CCN(C)CC4)cc32)sc1C(N)=O)c1ccccc1C(F)(F)F` get here? True

Just curious, what result did `CC(C)(C)c1ccc(Cn2cc(CSc3nc4ccccc4s3)nn2)cc1` get here? False

Just curious, what result did `O=C1NC(=O)[C@@H](c2cn3c4c(cccc24)CCC3)[C@@H]1c1c[nH]c2ccccc12` get here? True

Just curious, what result did `COc1cc2c(cc1OCCCN1Cc3ccc(OCCCCC(=O)N4CCC(CCN5CCCC5)CC4)cc3C1)N=C(N)C21CCCC1` get here? False

Just curious, what result did `CC/C(=C(/c1ccc(Cl)cc1)c1ccc(OCCN2CCCCC2)cc1)c1ccc(Cl)cc1` get here? False

Just curious, what result did `COc1ccc(S(=O)(=O)N(C(C)=O)c2ccccc2/C=C/c2cc[n+]([O-])cc2)cc1` get here? True

Just curious, what result did `CNC(=O)c1cc(Oc2ccc(NC(=O)Nc3cc(C(C)(C)C)nn3-c3ccc4ncccc4c3)c(F)c2)ccn1` get here? True

Just curious, what result did `COc1cnc2c(c1)C(=O)c1c-2n(CCCN2CCC(N)CC2)c(=O)c2cc([N+](=O)[O-])ccc12` get here? False

Just curious, what result did `O=C(Cc1ccc(/C=C/C(=O)c2ncc[nH]2)cc1)Nc1ccc(S(F)(F)(F)(F)F)cc1` get here? False

Just curious, what result did `CO[C@H]1C[C@@H]2CC[C@@H](C)[C@@](O)(O2)C(=O)C(=O)N2CCCC[C@H]2C(=O)O[C@H]([C@H](C)C[C@@H]2CC[C@@H](OP(C)(C)=O)[C@H](OC)C2)CC(=O)[C@H](C)/C=C(\C)[C@@H](O)[C@@H](OC)C(=O)[C@H](C)C[C@H](C)\C=C/C=C/C=C/1C` get here? False

Just curious, what result did Nc1nc(N)c2cc(CNc3ccc(C(=O)NC(CC(=O)O)C(=O)O)cc3)ccc2n1 (stereo unspecified) get here? False

Just curious, what result did `CC(C)CC(=O)Nc1n[nH]c2c1CN(C(=O)C1CCN(C)CC1)C2(C)C` get here? True

Just curious, what result did `C[C@H](NC(=O)c1c(N)nn2cccnc12)c1cc2cccc(C#Cc3cnn(C)c3)c2c(=O)n1-c1ccccc1` get here? False

----------
System: SR leukemia
Assay: NCI-60 one-dose screen, 48 h (100 = growth as untreated, 0 = no growth, -100 = all killed)
Details: 10 µM unless noted
This is part of a sample that, as a whole, favours compounds with a hit. Of some 83,000 tested, about 20% had one in any assay.
Simple rule here: growth less than 20% is 1.0, otherwise 0.0.

Please review the entries below; each comes with its answer.
CC/C(=C(/c1ccc(Cl)cc1)c1ccc(OCCN2CCCCC2)cc1)c1ccc(Cl)cc1 | 1.0
CCNC(=O)Nc1nc2ccc(Oc3ccnc(C(=O)NC)c3)cc2s1 | 0.0
Clc1ccc2c(NCCCNCc3ccc4c(c3)OCO4)ccnc2c1 | 1.0
C/C(=C(/c1ccc(Cl)cc1)c1ccc(OCCN2CCCCCC2)cc1)c1ccccc1 | 1.0
Cn1cnc(-c2cc3nccc(Oc4ccc(NC(=S)NC(=O)Cc5ccccc5)cc4F)c3s2)c1 | 0.0

State whether 20% exceeds growth recorded for `Cc1c(Cn2c(C)nc3c(C(=O)O)cc(N4CCOCC4)cc32)cccc1C(F)(F)F` . 0.0

State whether 20% exceeds growth recorded for `Cn1c(=O)c(F)c(Nc2ccc(I)cc2F)c2c(=O)n(C[C@@H](O)CO)cnc21` . 0.0

State whether 20% exceeds growth recorded for `O=C(Cn1cncn1)Nc1ccc(-c2nc3ccccc3s2)cc1` . 0.0

State whether 20% exceeds growth recorded for `COC(=O)[C@]12CC[C@@H](C)[C@H](C)[C@@H]1C1=CC[C@@H]3[C@@]4(C)C(C=O)=C[C@@](C)(COS(C)(=O)=O)C4=CC[C@@]3(C)[C@]1(C)CC2` . 1.0

----------
System: NCI/ADR-RES ovarian
Assay: NCI-60 one-dose screen, 48 h (100 = growth as untreated, 0 = no growth, -100 = all killed)
Conditions: 10 µM unless noted
About 83,000 compounds went through this panel and 20% of them were active in at least one assay; those are over-represented in the sample as a whole.
recorded endpoint: growth (%)
// note: answer is a bare numeric in %

Please review the entries below; each comes with its answer.
CCN(CCO)CCCOc1ccc2c(Nc3cc(CC(=O)Nc4cccc(F)c4)[nH]n3)ncnc2c1 | 70.7
Clc1ccc(/C=C/c2cc(N3CCOCC3)c3cc(Cl)c(Cl)cc3n2)cc1 | 90.2
C=CC(=O)Nc1cc2c(Nc3ccc(F)c(Cl)c3)ncnc2cc1C#CC(C)(C)N1CCN(C)CC1 | -52.2
CCN1/C(=C/C=C/c2n(-c3ccccc3)c3ccc(-c4nc5ccccc5s4)cc3[n+]2CC)N(c2ccccc2)c2ccc(-c3nc4ccccc4s3)cc21 | 52.3

Let us move to another entry and its growth.
Any idea what growth came out for `COCc1c(-c2ccc(NC(=O)Nc3cc(C(F)(F)F)ccc3F)c(F)c2)c2c(N)ncnn2c1CN1CCOCC1` on NCI/ADR-RES ovarian? -21.4

----------
Test system: NCI-H522 lung
Assay: NCI-60 one-dose screen, 48 h (100 = growth as untreated, 0 = no growth, -100 = all killed)
Details: 10 µM unless noted
Compounds without any hit were thinned out: in the full panel of roughly 83,000, 20% have a hit. Active and inactive are the calls of the source. Rule for the calls: active = growth percent below 10; inactive = the rest.
recorded endpoint: growth

Please review the entries below; each comes with its answer.
Cc1nc2cc(-c3nn(C(C)C)c4ncnc(N)c34)ccc2o1 | -11.5% (active)
C[C@@H]1COCCN1c1cc(C2([S@](C)(=N)=O)CC2)nc(-c2ccnc3[nH]ccc23)n1 | 30.9% (inactive)
C/C(=C(/c1ccc(Cl)cc1)c1ccc(OCCN2CCCC2)cc1)c1ccccc1 | 58.9% (inactive)
CCOC(=O)C1=C(C)N=C2Sc3cc(OC(F)(F)F)ccc3N2[C@H]1c1ccccn1 | 48.5% (inactive)

Let us move to another entry and its growth.
Entry `COc1ccc2c(CCc3ccc(Cl)cc3)c3[n+](cc2c1OC)CCc1cc2c(cc1-3)OCO2` has what growth? 13.4% (inactive)

----------
Test system: OVCAR-4 ovarian
Test: NCI-60 one-dose screen, 48 h
Conditions: 10 µM unless noted
Compounds without any hit were thinned out: in the full panel of roughly 83,000, 20% have a hit. Calls of active or inactive are those of the source. The calls were made as follows: active = growth percent below 10; inactive = the rest.
Bench note: report the call from active, inactive

Please review the entries below; each comes with its answer.
Cc1ccc(NC(=O)c2ccc(CN3CCN(C)CC3)cc2)cc1Nc1nc(-c2cccnc2)cs1 | inactive
COC(=O)Nc1nc2ccc(C(=O)c3ccc(N(C)C4COC4)cc3)cc2[nH]1 | inactive
Cc1cc(O)c2c(c1)C1OC(=O)CCCCCN1C1=C2C(=O)c2cccc(OC3CC(O)C(O)C(C)O3)c2C1=O (centres undefined) | inactive
C[C@@]1(C(=O)Nc2ccc(F)nc2)CCCN1c1nc(Nc2cc(C3CC3)[nH]n2)c2cccn2n1 | active
CN1CCN(CC(=O)Nc2ccc(-c3nc4ccccc4s3)cc2)CC1 | inactive

Just curious, what result did `CCc1nc2cc(/C=C/C(=O)NO)c(F)cc2c(=O)n1CCc1ccccc1` get here? inactive

Just curious, what result did `CS(=O)(=O)CCNCc1ccc(-c2ccc3ncnc(Nc4ccc(OCc5cccc(F)c5)c(Cl)c4)c3c2)o1` get here? active

Just curious, what result did `COc1cc2c(cc1O)c(=O)n(CCN(C)C)c1c3cc4c(cc3ncc21)OCO4` get here? active

Just curious, what result did `N#Cc1c(-c2ccc(C(F)(F)F)cc2)cc(NCC2CCS(=O)(=O)CC2)n2c1nc1ccccc12` get here? inactive

Reference source for all entries: PubChem BioAssay (NCI)
